Data credit: patent US5132309A

# Run description: Cataleptogenic (catalepsy-inducing) effect
# Design: species or system male Wistar rats
# Experimental parameters: in vivo; rat; oral; hourly for 6 hours
The entries below are paired with their reported ED50 at 6 h.
Measured metric: ED50 at 6 h

                                   molecule  experimental_value
0  CN1CCN(C2=Nc3cc(Cl)ccc3Nc3ccccc32)CC1 [Clozapine, reference compound]          31.9 mg/kg
1  CN1C(=O)OC2(CCN(CCC=C(c3ccc(F)cc3)c3ccc(F)cc3)CC2)C1(C)O.Cl (stereo not drawn)         > 300 mg/kg
2  CC1(O)N(Cc2ccccc2)C(=O)OC12CCN(CCC=C(c1ccc(F)cc1)c1ccc(F)cc1)CC2.Cl (stereo not drawn)         > 300 mg/kg
